The origin of these recorded values is patent US6905854B2.

# Procedure text: Kinetic assay of purified DAOCS with penicillin G (standard penicillin G assay, HPLC of cephalosporin G)
# Type: biochemical
# Assay conditions: for penicillin G; 20 μg purified DAOCS, 1 mM α-ketoglutarate, 30° C.
Catalogue of kcat values
# output: bare number, implied unit S^−1

| Molecule | kcat, S^−1 |
| --- | --- |
| YS8: mutated penicillin expandase (DAOCS) with substitution I305L (protein, UniProt P18548 1-311, looked up, variant I305L) Deacetoxycephalosporin C …: MDTTVPTFSLAELQQGLHQDEFRRCLRDKGLFYLTDCGLTDTELKSAKDLVIDFFEHGSEAEKRAVTSPVPTMRRGFTGLESESTAQITNTGSYSDYSMCYSMGTADNLFPSGDFERIWTQYFDRQYTASRAVAREVLRATGTEPDGGVEAFLDCEPLLRFRYFPQVPEHRSAEEQPLRMAPHYDLSMVTLIQQTPCANGFVSLQAEVGGAFTDLPYRPDAVLVFCGAIATLVTGGQVKAPRHHVAAPRRDQIAGSSRTSSVFFLRPNADFTFSVPLARECGFDVSLDGETATFQDWIGGNYVNLRRTSKA | 0.0759 |
| YS123: mutated penicillin expandase (DAOCS) with substitution H244Q (protein, UniProt P18548 1-311, looked up, variant H244Q) Deacetoxycephalosporin C …: MDTTVPTFSLAELQQGLHQDEFRRCLRDKGLFYLTDCGLTDTELKSAKDLVIDFFEHGSEAEKRAVTSPVPTMRRGFTGLESESTAQITNTGSYSDYSMCYSMGTADNLFPSGDFERIWTQYFDRQYTASRAVAREVLRATGTEPDGGVEAFLDCEPLLRFRYFPQVPEHRSAEEQPLRMAPHYDLSMVTLIQQTPCANGFVSLQAEVGGAFTDLPYRPDAVLVFCGAIATLVTGGQVKAPRHQVAAPRRDQIAGSSRTSSVFFLRPNADFTFSVPLARECGFDVSLDGETATFQDWIGGNYVNIRRTSKA | 0.0698 |
| YS72: mutated penicillin expandase (DAOCS) with substitution C155Y (protein, UniProt P18548 1-311, looked up, variant C155Y) Deacetoxycephalosporin C …: MDTTVPTFSLAELQQGLHQDEFRRCLRDKGLFYLTDCGLTDTELKSAKDLVIDFFEHGSEAEKRAVTSPVPTMRRGFTGLESESTAQITNTGSYSDYSMCYSMGTADNLFPSGDFERIWTQYFDRQYTASRAVAREVLRATGTEPDGGVEAFLDYEPLLRFRYFPQVPEHRSAEEQPLRMAPHYDLSMVTLIQQTPCANGFVSLQAEVGGAFTDLPYRPDAVLVFCGAIATLVTGGQVKAPRHHVAAPRRDQIAGSSRTSSVFFLRPNADFTFSVPLARECGFDVSLDGETATFQDWIGGNYVNIRRTSKA | 0.0476 |

We next turn to a different molecule, shown below.
Task item: Entry under review: YS69: mutated penicillin expandase (DAOCS) with substitution M188I (protein, UniProt P18548 1-311, looked up, variant M188I) Deacetoxycephalosporin C …: MDTTVPTFSLAELQQGLHQDEFRRCLRDKGLFYLTDCGLTDTELKSAKDLVIDFFEHGSEAEKRAVTSPVPTMRRGFTGLESESTAQITNTGSYSDYSMCYSMGTADNLFPSGDFERIWTQYFDRQYTASRAVAREVLRATGTEPDGGVEAFLDCEPLLRFRYFPQVPEHRSAEEQPLRMAPHYDLSIVTLIQQTPCANGFVSLQAEVGGAFTDLPYRPDAVLVFCGAIATLVTGGQVKAPRHHVAAPRRDQIAGSSRTSSVFFLRPNADFTFSVPLARECGFDVSLDGETATFQDWIGGNYVNIRRTSKA . Reported kcat?
Reply: 0.0507
